For each record, write down the corresponding Ratio.
Tested on: Striatum
protocol details: Ratio of SUV in striatum in iv dosed Wistar at 2 mins post administration by gamma counting to SUV in striatum in iv dosed Wistar at 30 mins post administration by gamma counting
Type: ADME, organism-based
condition notes: rat, in vivo
Answers are plain numbers.

Recorded Ratio, per entry:
[11CH3]Oc1ccc(F)c(F)c1C1CCN(c2ccn3c(CC4CC4)nnc3c2Cl)CC1 ... 0.99
[11CH3]Oc1cccc(F)c1C1CCN(c2ccn3c(CC4CC4)nnc3c2Cl)CC1 ... 0.59
[11CH3]Oc1c(F)ccc(F)c1C1CCN(c2ccn3c(CC4CC4)nnc3c2C(F)(F)F)CC1 ... 0.86
[11CH3]Oc1cc(F)cc(F)c1C1CCN(c2ccn3c(CC4CC4)nnc3c2Cl)CC1 ... 0.67
[11CH3]Oc1c(F)ccc(F)c1C1CCN(c2ccn3c(CC4CC4)nnc3c2Cl)CC1 ... 0.57

Attention now turns to another entry.
Query: Could you share which Ratio value was measured for [11CH3]Oc1ccc(F)cc1C1CCN(c2ccn3c(CC4CC4)nnc3c2Cl)CC1 ?
Reply: 0.63

====

Assignment: determine reported Ratio for the given molecules.
Test system: Cerebrum
protocol details: Ratio of SUV in cerebrum in iv dosed Wistar at 2 mins post administration by gamma counting to SUV in cerebrum in iv dosed Wistar at 30 mins post administration by gamma counting
Type: ADME, organism-based
condition notes: rat, in vivo

[11CH3]Oc1c(F)ccc(F)c1C1CCN(c2ccn3c(CC4CC4)nnc3c2Cl)CC1 ... 0.67

Would you mind giving Ratio for every molecule in the list below?
1. [11CH3]Oc1cc(F)cc(F)c1C1CCN(c2ccn3c(CC4CC4)nnc3c2Cl)CC1
2. [11CH3]Oc1ccc(F)cc1C1CCN(c2ccn3c(CC4CC4)nnc3c2Cl)CC1

Reply:
0.72
0.83

Query: Given the entry [11CH3]Oc1ccc(F)c(F)c1C1CCN(c2ccn3c(CC4CC4)nnc3c2Cl)CC1 , report its measured Ratio.
Reply: 0.84
